target: Aurora kinase A (Homo sapiens, UniProt O14965); assay: Inhibition of human recombinant His-tagged Aurora A kinase expressed in insect cells
readout.kind: IC50

compound	val
CCOc1ccc2cc(CNc3cc(OC)cc(OC)c3)c(=O)[nH]c2c1	Not Active
CCOc1ccc2nc(NC3=NC(=O)CC(c4ccc(OC)cc4)N3)nc(C)c2c1 (stereo unspecified)	Not Active
Cc1ccc(Nc2cc(Nc3ccc(NS(=O)(=O)c4ccccc4F)cc3)nc(C)n2)cc1	Not Active
CCCOc1ccc(CNC(=O)c2[nH]c3cc(C)ccc3c2Sc2ccccc2)cc1	Not Active
COc1ccc(N(CC(=O)Nc2cc(Cl)ccc2C)S(=O)(=O)c2c(C)n[nH]c2C)cc1	Not Active

# context switch: different compound, same IC50
Tell me its IC50 on Aurora kinase A (Homo sapiens, UniProt O14965): CCOc1ccc(NC(=S)N(CCN(CC)CC)Cc2cc3cc4c(cc3[nH]c2=O)OCCO4)cc1
Not Active

* * *

Catalogue of IC50 readings, one per entry.
Target: Aurora kinase A (Homo sapiens)
Sequence (O14965 whole entry): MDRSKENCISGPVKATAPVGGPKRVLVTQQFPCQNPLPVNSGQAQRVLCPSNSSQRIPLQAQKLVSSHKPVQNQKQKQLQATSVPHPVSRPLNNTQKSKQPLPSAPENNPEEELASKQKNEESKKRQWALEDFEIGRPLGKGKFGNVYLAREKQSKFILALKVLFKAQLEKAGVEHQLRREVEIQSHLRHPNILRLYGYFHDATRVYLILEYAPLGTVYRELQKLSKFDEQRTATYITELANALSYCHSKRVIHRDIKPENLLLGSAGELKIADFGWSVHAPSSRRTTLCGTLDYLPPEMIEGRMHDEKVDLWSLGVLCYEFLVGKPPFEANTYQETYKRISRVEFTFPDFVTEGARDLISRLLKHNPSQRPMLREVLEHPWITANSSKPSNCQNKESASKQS
Experiment: Inhibition of human recombinant His-tagged Aurora A kinase expressed in insect cells
Settings: read-out: IC50
Quick note: give the figure in µM, leave out the unit.

molecule	val
CCOc1ccc(NC(=O)Cn2c(Nc3ccc(OCC)cc3)nc3c2c(=O)[nH]c(=O)n3C)cc1	98.7
CCOc1ccc2nc(Nc3nc(O)c4ccccc4n3)nc(C)c2c1	16.7
COc1ccc(C(=O)Nc2ccccc2C(=O)NC(Cc2ccc(O)cc2)C(=O)Nc2ccc(C)cc2C)cc1 (stereo not given)	5.09
COc1ccc2cc(C(=O)C3CCC(C(C)C(=O)NCCC4=CCCCC4)CC3)[nH]c2c1 (stereo not given)	86.2
COc1ccc(OCC(O)Cn2c(N/N=C/c3ccccc3O)nc3c2c(=O)[nH]c(=O)n3C)cc1 (stereo not given)	18.4

Determine from records and report IC50 for Cc1ccc(NC(=O)C(Cc2ccc(O)cc2)NC(=O)c2ccccc2N)cc1 (stereo not given)
11.9

Indicate its recorded IC50; the molecule in question is Cc1ccc(-c2nnc(Nc3ccc(Oc4ncccc4-c4c[nH]nc4N)cc3)c3ccccc23)cc1
0.06

* * *

biological target: Aurora kinase A (Homo sapiens, UniProt O14965); assay: Inhibition of human recombinant His-tagged Aurora A kinase expressed in insect cells; conditions: read-out: IC50
pIC50: −log10 of the molar value.
readout.kind: pIC50

Recorded results for 2 compounds are shown here.
COc1ccc(-c2cc(C(=O)Nc3ccc(C)cc3C)c3c(-c4ccccc4)[nH]nc3n2)cc1OC < 4.00
CC(=O)Nc1cccc(NC(=O)C(=O)NCCc2sc(-c3ccc(Cl)cc3)nc2C)c1 < 4.00

Please report pIC50 with Aurora kinase A (Homo sapiens, UniProt O14965) for item COc1ccc2sc(SCC(=O)Nc3ncc(Br)s3)nc2c1 .
< 4.00
